Assayed System: Human immunodeficiency virus type 1 protease (Human immunodeficiency virus 1, UniProt Q72874)
Assay Overview: Tested for inhibition of synthetic HIV-1 protease by using fluorometric assay
Metric Name: pKi
Give bare numbers, as −log10 of the molar value.

>  <Compound>
CC[C@@H](C)[C@@H]1NC(=O)[C@@H](NC[C@@H](O)[C@H](Cc2ccccc2)NC(=O)OC(C)(C)C)Cc2ccc(cc2)OCCCNC1=O

>  <pKi>
8.40

$$$$
>  <Compound>
CC[C@@H](C)[C@@H]1NC(=O)[C@@H](NC[C@@H](O)[C@H](Cc2ccccc2)NC(=O)[C@@H](NC(=O)[C@H](CC(C)C)NC(C)=O)C(C)C)Cc2ccc(cc2)OCCCNC1=O

>  <pKi>
9.22

$$$$
>  <Compound>
CC[C@@H](C)[C@@H]1NC(=O)[C@@H](NC[C@H](Cc2ccccc2)NC(=O)OC(C)(C)C)Cc2ccc(cc2)OCCCNC1=O

>  <pKi>
7.36

$$$$
>  <Compound>
CC[C@H](C)[C@H](NC(=O)[C@@H](NC(=O)[C@@H]1CCCN1)C(C)C)C(=O)NCC(O)C1Cc2ccc(cc2)OCCCC(=O)NC(CC(N)=O)C(=O)N1 (stereo partly drawn)

>  <pKi>
7.92

$$$$
>  <Compound>
CC[C@@H](C)[C@@H]1NC(=O)[C@@H](NC[C@@H](O)[C@H](Cc2ccccc2)NC(=O)OC2CCOC2)Cc2ccc(cc2)OCCCNC1=O (stereo partly drawn)

>  <pKi>
8.40

$$$$
>  <Compound>
CC[C@@H](C)[C@@H]1NC(=O)[C@@H](NC[C@@H](O)[C@H](Cc2ccccc2)NC(=O)[C@H](C(C)C)N2CCCC2=O)Cc2ccc(cc2)OCCCNC1=O

>  <pKi>
9.00

$$$$
>  <Compound>
CC[C@@H](C)[C@@H]1NC(=O)[C@@H](NC[C@@H](O)[C@H](Cc2ccccc2)NC(=O)c2cccc(C)c2)Cc2ccc(cc2)OCCCNC1=O

>  <pKi>
7.82

$$$$

Now let's try a different one.
GET /values?readout=pKi&item= CC(C)CCN(C[C@@H](O)[C@@H]1Cc2ccc(cc2)OCCCCCC(=O)N[C@@H](C(C)C)C(=O)N1)S(=O)(=O)c1ccccc1
8.80

====

Assayed System: Human immunodeficiency virus type 1 protease (Human immunodeficiency virus 1, UniProt Q72874)
Assay Overview: Tested for inhibition of synthetic HIV-1 protease by using fluorometric assay
Provide the reported pKi of each item.
One number for each entry, as −log10 of the molar value.

>  <Molecule>
CCC(C)N(C[C@@H](O)[C@@H]1Cc2ccc(cc2)OCCCCCC(=O)N[C@@H](C(C)C)C(=O)N1)S(=O)(=O)c1ccc(N)cc1 (stereo partly specified)

>  <Observed Value>
8.70

$$$$
>  <Molecule>
CC(C)CCN(C[C@@H](O)[C@@H]1Cc2ccc(cc2)OCCCCCC(=O)N[C@@H](C(C)C)C(=O)N1)S(=O)(=O)c1cccc([N+](=O)[O-])c1

>  <Observed Value>
6.84

$$$$

State recorded pKi for all listed molecules.
1. CC(C)CCN(C[C@@H](O)[C@@H]1Cc2ccc(cc2)OCCCCCC(=O)N[C@@H](C(C)C)C(=O)N1)S(=O)(=O)c1ccc2ccccc2c1
2. CC(C)[C@@H]1NC(=O)CCCCCOc2ccc(cc2)C[C@@H]([C@H](O)CN(C2CCCC2)S(=O)(=O)c2ccc(N)cc2)NC1=O
3. COc1ccc(CCN(C[C@@H](O)[C@@H]2Cc3ccc(cc3)OCCCCCC(=O)N[C@@H](C(C)C)C(=O)N2)S(=O)(=O)c2ccc(N)cc2)cc1
4. CC(C)CCN(C[C@@H](O)[C@@H]1Cc2ccc(cc2)OCCCCCC(=O)N[C@@H](C(C)C)C(=O)N1)NC(=O)NC1CCCCC1

[9.00, 8.52, 8.52, 6.68]

====

Assayed System: Human immunodeficiency virus type 1 protease (Human immunodeficiency virus 1)
Assay Overview: Tested for inhibition of synthetic HIV-1 protease by using fluorometric assay
Metric Name: pKi
Give bare numbers, as −log10 of the molar value.

State recorded pKi for all listed compounds.
1. CC(C)[C@@H]1NC(=O)CCCCCOc2ccc(cc2)C[C@@H]([C@H](O)CN(CCc2ccccc2)S(=O)(=O)c2ccc(N)cc2)NC1=O
2. CC(C)CCN(C[C@@H](O)[C@@H]1Cc2ccc(cc2)OCCCCCC(=O)N[C@@H](C(C)C)C(=O)N1)NC(=O)NCc1ccccc1
3. CC(=O)Nc1ccc(S(=O)(=O)N(CCC(C)C)C[C@@H](O)[C@@H]2Cc3ccc(cc3)OCCCCCC(=O)N[C@@H](C(C)C)C(=O)N2)cc1

1. 8.10
2. 6.50
3. 8.00

====

Assayed System: Human immunodeficiency virus type 1 protease (Human immunodeficiency virus 1, UniProt Q72874)
Assay Overview: Tested for inhibition of synthetic HIV-1 protease by using fluorometric assay
Metric Name: Ki (nM)
One number for each entry, in nM.

>  <Compound>
CC(C)CCN(C[C@@H](O)[C@@H]1Cc2ccc(cc2)OCCCCC(=O)N[C@@H](C(C)C)C(=O)N1)S(=O)(=O)c1ccccc1

>  <Ki (nM)>
0.4

$$$$
>  <Compound>
CC(C)CCN(C[C@@H](O)[C@@H]1Cc2ccc(cc2)OCCCC(=O)N[C@@H](C(N)=O)C(=O)N1)S(=O)(=O)c1ccccc1

>  <Ki (nM)>
1

$$$$
>  <Compound>
CC(C)(C)N(CC(O)C1Cc2ccc(cc2)OCCCC(=O)NC(CC(N)=O)C(=O)N1)C(=O)C1CCCCN1 (centres undefined)

>  <Ki (nM)>
12

$$$$

Now let's try a different one.
GET /values?readout=Ki&item= CC[C@@H](C)[C@@H]1NC(=O)[C@@H](NC[C@@H](O)[C@@H]2Cc3ccc(cc3)OCCCCC(=O)N[C@@H](C(C)C)C(=O)N2)Cc2ccc(cc2)OCCCNC1=O
5

====

Assayed System: UniProtKB Q72874
Assay Overview: Tested for inhibition of synthetic HIV-1 protease by using fluorometric assay
Metric Name: pKi
One number for each entry, as −log10 of the molar value.

State recorded pKi for all listed compounds.
1. CC(C)CCN(C[C@@H](O)[C@@H]1Cc2ccc(cc2)OCCCCCC(=O)N[C@@H](C(C)C)C(=O)N1)S(=O)(=O)c1c(C(C)C)cc(C(C)C)cc1C(C)C
2. CC(C)[C@@H]1NC(=O)CCCCCOc2ccc(cc2)C[C@@H]([C@H](O)CN(CCCCCC(=O)O)S(=O)(=O)c2ccc(N)cc2)NC1=O
3. CCCCCCN(C[C@@H](O)[C@@H]1Cc2ccc(cc2)OCCCCCC(=O)N[C@@H](C(C)C)C(=O)N1)S(=O)(=O)c1ccc(N)cc1
4. CC(C)CCN(C[C@@H](O)[C@@H]1Cc2ccc(cc2)OCCCCCC(=O)N[C@@H](C(C)C)C(=O)N1)S(=O)(=O)c1cccc2cccnc12

[5.33, 7.22, 7.85, 6.53]
